Data origin, for the record: patent US20060154964A1

Recorded pEC50 by entry
subject-of-test: δ receptors in rat brain membranes (Rattus norvegicus)
Construct: membranes from HEK-293S cells expressing the cloned human opioid receptors or from homogenised rat or mouse brain
Sequence (P33533 whole entry): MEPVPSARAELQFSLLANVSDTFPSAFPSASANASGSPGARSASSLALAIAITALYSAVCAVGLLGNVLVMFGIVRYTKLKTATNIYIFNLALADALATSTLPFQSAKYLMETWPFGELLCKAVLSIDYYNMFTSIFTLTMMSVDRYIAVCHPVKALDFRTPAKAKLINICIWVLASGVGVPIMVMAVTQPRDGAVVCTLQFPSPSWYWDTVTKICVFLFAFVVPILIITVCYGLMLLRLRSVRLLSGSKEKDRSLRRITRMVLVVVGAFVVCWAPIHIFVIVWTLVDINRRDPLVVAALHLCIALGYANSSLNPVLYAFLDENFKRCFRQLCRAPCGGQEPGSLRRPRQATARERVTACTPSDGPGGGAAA
assay-method-text: Rat brain GTP[γ]35S binding functional assay
pEC50: −log10 of the molar value.

- compound-string: "CCN(CC)C(=O)c1ccc(C(=C2CCN(Cc3ccccc3)CC2)c2cccc(NC(C)=O)c2)cc1"
  assay-value: "7.80 to 8.14"

For the next question, use this molecule.
Prompt: Give recorded pEC50. CCN(CC)C(=O)c1ccc(C(=C2CCN(Cc3ccsc3)CC2)c2cccc(NC(C)=O)c2)cc1
Completion: 7.80 to 8.14

* * *

subject-of-test: human δ receptors (Homo sapiens, UniProt P41143)
Construct: expressed in transfected cells
Sequence (P41143 whole entry): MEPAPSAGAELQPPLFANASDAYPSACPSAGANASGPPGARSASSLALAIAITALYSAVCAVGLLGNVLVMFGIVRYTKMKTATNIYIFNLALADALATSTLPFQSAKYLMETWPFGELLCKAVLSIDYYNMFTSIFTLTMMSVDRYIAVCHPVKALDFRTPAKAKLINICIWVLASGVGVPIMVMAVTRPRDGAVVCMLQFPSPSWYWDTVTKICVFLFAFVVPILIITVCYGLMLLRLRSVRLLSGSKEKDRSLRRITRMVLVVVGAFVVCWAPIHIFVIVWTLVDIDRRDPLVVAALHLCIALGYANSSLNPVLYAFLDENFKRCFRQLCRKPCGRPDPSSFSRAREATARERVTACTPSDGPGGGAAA
assay-method-text: Binding assay, cloned human δ receptor membranes (125I-Deltorphin II displacement)
Measured IC50, listed per entry.

- compound: "CCN(CC)C(=O)c1ccc(C(=C2CCN(Cc3cccnc3)CC2)c2cccc(NC(C)=O)c2)cc1 [Compound 5]"
  subject-of-test: "human δ receptors (Homo sapiens, UniProt P41143)"
  IC50: "0.19 to 1.49 nM"
- compound: "CCN(CC)C(=O)c1ccc(C(=C2CCN(Cc3cccs3)CC2)c2cccc(NC(C)=O)c2)cc1 [Compound 1]"
  subject-of-test: "human δ receptors (Homo sapiens, UniProt P41143)"
  IC50: "0.19 to 1.49 nM"
- compound: "CCN(CC)C(=O)c1ccc(C(=C2CCN(Cc3cscn3)CC2)c2cccc(NC(C)=O)c2)cc1 [Compound 8]"
  subject-of-test: "human δ receptors (Homo sapiens, UniProt P41143)"
  IC50: "0.19 to 1.49 nM"

Then this compound:
Prompt: Using known records, supply IC50 for CCN(CC)C(=O)c1ccc(C(=C2CCN(Cc3ccccn3)CC2)c2cccc(NC(C)=O)c2)cc1 [Compound 7]
Completion: 0.19 to 1.49 nM

* * *

# key: entry, value: pIC50
subject-of-test: human δ receptors (Homo sapiens, UniProt P41143)
assay-method-text: Binding assay, cloned human δ receptor membranes (125I-Deltorphin II displacement)
pIC50: −log10 of the molar value.

- compound-string: "CCN(CC)C(=O)c1ccc(C(=C2CCN(Cc3ccsc3)CC2)c2cccc(NC(C)=O)c2)cc1"
  subject-of-test: "human δ receptors (Homo sapiens, UniProt P41143)"
  pIC50: "9.23 to 9.47"
- compound-string: "CCN(CC)C(=O)c1ccc(C(=C2CCN(Cc3ccncc3)CC2)c2cccc(NC(C)=O)c2)cc1"
  subject-of-test: "human δ receptors (Homo sapiens, UniProt P41143)"
  pIC50: "8.83 to 9.72"
- compound-string: "CCN(CC)C(=O)c1ccc(C(=C2CCN(Cc3cncs3)CC2)c2cccc(NC(C)=O)c2)cc1"
  subject-of-test: "human δ receptors (Homo sapiens, UniProt P41143)"
  pIC50: "8.83 to 9.72"
- compound-string: "CCN(CC)C(=O)c1ccc(C(=C2CCN(Cc3ccco3)CC2)c2cccc(NC(C)=O)c2)cc1"
  subject-of-test: "human δ receptors (Homo sapiens, UniProt P41143)"
  pIC50: "8.83 to 9.72"

Now for another entry.
Prompt: // output pIC50; input CCN(CC)C(=O)c1ccc(C(=C2CCN(Cc3ccccc3)CC2)c2cccc(NC(C)=O)c2)cc1 ; system human δ receptors (Homo sapiens, UniProt P41143)
Completion: 9.23 to 9.47

* * *

Readings of IC50 for the listed compounds
subject-of-test: human κ receptors (Homo sapiens)
Construct: expressed in transfected cells; host or cells: human 293S cells, geneticin-selected
Sequence (P41145 whole entry): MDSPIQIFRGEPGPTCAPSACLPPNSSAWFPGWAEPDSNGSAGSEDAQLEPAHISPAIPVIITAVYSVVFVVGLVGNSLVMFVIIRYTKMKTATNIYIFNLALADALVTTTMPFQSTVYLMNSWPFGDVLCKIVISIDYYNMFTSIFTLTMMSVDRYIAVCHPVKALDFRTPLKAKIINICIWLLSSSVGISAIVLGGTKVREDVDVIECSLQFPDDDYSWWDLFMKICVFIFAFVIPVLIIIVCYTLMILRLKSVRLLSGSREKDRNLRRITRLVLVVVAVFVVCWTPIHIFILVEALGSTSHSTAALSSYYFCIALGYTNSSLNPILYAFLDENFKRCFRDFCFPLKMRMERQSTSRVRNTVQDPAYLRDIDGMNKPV
assay-method-text: Binding assay, cloned human κ receptor membranes (125I-DPDYN displacement)

- compound-string: "CCN(CC)C(=O)c1ccc(C(=C2CCN(Cc3ccncc3)CC2)c2cccc(NC(C)=O)c2)cc1"
  assay-metric: "IC50"
  assay-value: "5.83 to 9.07 µM"
- compound-string: "CCN(CC)C(=O)c1ccc(C(=C2CCN(Cc3cccnc3)CC2)c2cccc(NC(C)=O)c2)cc1"
  assay-metric: "IC50"
  assay-value: "5.83 to 9.07 µM"
- compound-string: "CCN(CC)C(=O)c1ccc(C(=C2CCN(Cc3ccsc3)CC2)c2cccc(NC(C)=O)c2)cc1"
  assay-metric: "IC50"
  assay-value: "2.47 to 8 µM"

Prompt: Answer with the recorded IC50 of CCN(CC)C(=O)c1ccc(C(=C2CCN(Cc3ccccc3)CC2)c2cccc(NC(C)=O)c2)cc1 only.
Completion: 2.47 to 8 µM
